Origin of measurements: the supplement of paper PMC10567573

Documented protein stability index across a set of sequences
Assay: protein stability index of a GFP-peptide fusion (GPS, HEK-293T) (PSI 1-6); higher = more stable;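 also: 24-mer peptide tiles fused after GFP, lentivirally expressed, FACS-sorted into six equal bins by GFP/DsRed ratio, decoded by Illumina sequencing, PSI is the read-weighted mean bin number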
Details: treatment: DMSO; c terminus: a fixed tail appended

{"CONSTRUCT_SEQUENCE": "GNKQWWFGGGCDLTPTYLNQEDAI [CPOX]", "protein stability index": 3.12}
{"CONSTRUCT_SEQUENCE": "QSKPLLSAFADIIHSLKESGQLWL [FADS1]", "protein stability index": 2.8}
{"CONSTRUCT_SEQUENCE": "LGSTKLSDKDKAVGIFNTVINPML [OR3A1]", "protein stability index": 3}
{"CONSTRUCT_SEQUENCE": "EIVSIWILSFILAIPEAIGFVMVP [EDNRA]", "protein stability index": 2.86}
{"CONSTRUCT_SEQUENCE": "EMRISESAASGARFPLDSAQDPDV [PCDHGC5]", "protein stability index": 5.38}
{"CONSTRUCT_SEQUENCE": "NCIGIRDFALHYCLHHVHYLATEY [GAN]", "protein stability index": 3.1}
{"CONSTRUCT_SEQUENCE": "RQQGNPGHRSIYLALKLPDGSYAL [ADAMTS4]", "protein stability index": 2.04}
{"CONSTRUCT_SEQUENCE": "PHSAKTEEHTTILRPSYTGLSSSS [CDC14A]", "protein stability index": 4.4}
{"CONSTRUCT_SEQUENCE": "YCYRCGNQAAIMELDDTLKYSFLQ [PPP2CA]", "protein stability index": 2.74}
{"CONSTRUCT_SEQUENCE": "RLQSSFWIVDKQHVYIGSAGLDWQ [PLD5]", "protein stability index": 2.69}
{"CONSTRUCT_SEQUENCE": "LLVVGGFGSQQSPIDVVEKYDPKT [KLHL12]", "protein stability index": 3}
{"CONSTRUCT_SEQUENCE": "PSFCPVQPCFFQDISMEIPQEFQK [SCAMP3]", "protein stability index": 3.64}
{"CONSTRUCT_SEQUENCE": "AEKRQIGDQEGPRPARSTLDELLG [FBF1]", "protein stability index": 4.64}
{"CONSTRUCT_SEQUENCE": "RSANGFPYREDEEGAFGEHGSQGT [MAP2]", "protein stability index": 5.38}
{"CONSTRUCT_SEQUENCE": "EYLSFFDFSGLTLDGALRTFLKAF [PSD2]", "protein stability index": 2.44}
{"CONSTRUCT_SEQUENCE": "DVLSCEYYSPILDQWTPIAAMLRG [KLHL13]", "protein stability index": 2.2}
{"CONSTRUCT_SEQUENCE": "DTREEKRFLGEGHHRVQENQMDKA [CHGB]", "protein stability index": 5.25}
{"CONSTRUCT_SEQUENCE": "KELADFIRERATIEETYSKAMAKL [FCHO1]", "protein stability index": 3.16}
{"CONSTRUCT_SEQUENCE": "HCHIEESEHVLKKAHKYSELIILY [VPS39]", "protein stability index": 2.21}
{"CONSTRUCT_SEQUENCE": "SNPGVDFGDVSERLALRQRLKCRS [GALNT9]", "protein stability index": 4.43}
{"CONSTRUCT_SEQUENCE": "TFPSGSGAHFPQVPGGAVRVAAAA [PI4K2A]", "protein stability index": 3.81}
{"CONSTRUCT_SEQUENCE": "DYEAGQHMEDPRRAGKMLMTLPLL [ESRRG]", "protein stability index": 3.56}
{"CONSTRUCT_SEQUENCE": "LGSYKAQKTSRSSSIPCSGSLDGR [PPEF2]", "protein stability index": 4.18}
{"CONSTRUCT_SEQUENCE": "MAQYKGAASEAGRAMHLMKKREKQ [FAM50A]", "protein stability index": 4.7}
{"CONSTRUCT_SEQUENCE": "IPYNAKFLGSTEVEQPKGTEVVRD [GULP1]", "protein stability index": 4.7}
{"CONSTRUCT_SEQUENCE": "GRECQPRWETSSWSECSRTCGEGY [ADAMTSL2]", "protein stability index": 3.78}
{"CONSTRUCT_SEQUENCE": "CDFKIDAGDRFLEALGFSWHDTCF [PDLIM7]", "protein stability index": 2.6}

* * *

Documented protein stability index across a set of sequences
Experiment: protein stability index of a GFP-peptide fusion (GPS, HEK-293T) (PSI 1-6); higher = more stable
Conditions: treatment: MLN4924 1 uM, 8 h; c terminus: a fixed tail appended
MEASUREMENT_KIND: protein stability index

{"CONSTRUCT_SEQUENCE": "GSTAITPGTPPSYSSRTPGTPGTP [MAP2]", "MEASUREMENT_KIND": "protein stability index", "DATA_VALUE": 4.98}
{"CONSTRUCT_SEQUENCE": "GNTAVSVLMLLVALLFTGIAVLGI [SCAMP3]", "MEASUREMENT_KIND": "protein stability index", "DATA_VALUE": 1.96}
{"CONSTRUCT_SEQUENCE": "GPCEGPSKEDKDLDSSEGSSQEDE [SPANXN3]", "MEASUREMENT_KIND": "protein stability index", "DATA_VALUE": 5.68}
{"CONSTRUCT_SEQUENCE": "MQRKQSLGKPDQKDLNENLAATQG [DLC1]", "MEASUREMENT_KIND": "protein stability index", "DATA_VALUE": 4.99}
{"CONSTRUCT_SEQUENCE": "LIYASYFALIAVVFLASGAVSVMK [SLC19A2]", "MEASUREMENT_KIND": "protein stability index", "DATA_VALUE": 3.44}
{"CONSTRUCT_SEQUENCE": "GDGKSKKKQAGRPKGSKGKEKDSP [RBBP5]", "MEASUREMENT_KIND": "protein stability index", "DATA_VALUE": 5.34}
{"CONSTRUCT_SEQUENCE": "LHYQDTDSDVPEQRDSKCKVKWTH [MYBL2]", "MEASUREMENT_KIND": "protein stability index", "DATA_VALUE": 4.05}
{"CONSTRUCT_SEQUENCE": "PVTKPLFPSAGQAQAAVQGPVGTD [ZNF207]", "MEASUREMENT_KIND": "protein stability index", "DATA_VALUE": 5.05}
{"CONSTRUCT_SEQUENCE": "PTGRLPALVRWWNGIGAVLDFTHP [MYORG]", "MEASUREMENT_KIND": "protein stability index", "DATA_VALUE": 2.14}
{"CONSTRUCT_SEQUENCE": "RLRHYLGSRYDARRGVSDWDLRMK [DNAAF3]", "MEASUREMENT_KIND": "protein stability index", "DATA_VALUE": 2.33}
{"CONSTRUCT_SEQUENCE": "SRPTGQQLESLGLLAPGEQSLPCT [KISS1]", "MEASUREMENT_KIND": "protein stability index", "DATA_VALUE": 4.38}
{"CONSTRUCT_SEQUENCE": "EEEEAAMYEEEMEREEITTKKRKL [FAM50A]", "MEASUREMENT_KIND": "protein stability index", "DATA_VALUE": 5.38}
{"CONSTRUCT_SEQUENCE": "VLLPETQKRQQLSEDTLTIHGLPT [C22orf31]", "MEASUREMENT_KIND": "protein stability index", "DATA_VALUE": 3.88}

* * *

Assay: protein stability index of a GFP-peptide fusion (GPS, HEK-293T) (PSI 1-6); higher = more stable
Conditions: treatment: MLN4924 1 uM, 8 h; c terminus: a fixed tail appended
Documented protein stability index across a set of sequences

{"CONSTRUCT_SEQUENCE": "HCHIEESEHVLKKAHKYSELIILY [VPS39]", "protein stability index": 2.12}
{"CONSTRUCT_SEQUENCE": "LLAVPNIILTNQSVREVTQIKCIE [P2RY14]", "protein stability index": 2.35}
{"CONSTRUCT_SEQUENCE": "RPQPWLEKEIEEATKKLGFKHPVI [FUT8]", "protein stability index": 3.22}
{"CONSTRUCT_SEQUENCE": "HSYCRMFLQRGADTNLGRLEDGQT [ASB7]", "protein stability index": 2.85}
{"CONSTRUCT_SEQUENCE": "EVIPYTPAMQRYVKRLHEVGRTEP [HMOX1]", "protein stability index": 3.41}
{"CONSTRUCT_SEQUENCE": "APTADDDDDDHDDHEDNDKMNDSE [NOL4L]", "protein stability index": 5.54}
{"CONSTRUCT_SEQUENCE": "WVRSVSFSHDGLHVASLADDKMVR [WSB1]", "protein stability index": 3.54}
{"CONSTRUCT_SEQUENCE": "GVPQIWEKIHEMVKKNSAKSMGLK [ACSBG2]", "protein stability index": 2.53}
{"CONSTRUCT_SEQUENCE": "HTTRSSLRGPRERAPSERSGPAAS [DVL3]", "protein stability index": 4.75}
{"CONSTRUCT_SEQUENCE": "NRERVVSLIEDLQRELEIPEQQVD [ZNF449]", "protein stability index": 5.17}
{"CONSTRUCT_SEQUENCE": "MDADEGQDMSQVSGKESPPVSDTP [IKZF1]", "protein stability index": 5.28}
{"CONSTRUCT_SEQUENCE": "NKLTTLPSDFCGLTHLVKLDLSKN [LRRC59]", "protein stability index": 2.31}
{"CONSTRUCT_SEQUENCE": "STSYSPLASLPLKADTKGFCNISL [PLAGL1]", "protein stability index": 2.27}
{"CONSTRUCT_SEQUENCE": "RCNTTCGRGVKKRLVLCMELANGK [ADAMTSL2]", "protein stability index": 3}
{"CONSTRUCT_SEQUENCE": "YQHLEEDMKSLKQVLEMKNQQIHE [MTUS2]", "protein stability index": 4.27}
{"CONSTRUCT_SEQUENCE": "LEKCKTLVSQSNDLSSLRAKYPHD [SPACA9]", "protein stability index": 4.4}
{"CONSTRUCT_SEQUENCE": "ELSAIGSDTTPLPSWAALNSSTWG [SNX8]", "protein stability index": 2.75}
{"CONSTRUCT_SEQUENCE": "LVWIRGPGFGCKAVRCASGRCTVR [SDE2]", "protein stability index": 2.36}
{"CONSTRUCT_SEQUENCE": "LDLSEEDSDDPSVTLELSQLSMLP [VDR]", "protein stability index": 4.73}
{"CONSTRUCT_SEQUENCE": "AQLYTLWVTFQVLLYTSLPDFCHK [DHCR7]", "protein stability index": 3.13}
{"CONSTRUCT_SEQUENCE": "LSIRCQHQEQVEDLTASHDAALLE [MTUS2]", "protein stability index": 4.86}
{"CONSTRUCT_SEQUENCE": "ELSEKNFQLNQDKMNFSTLRNIQG [POMP]", "protein stability index": 3.27}
{"CONSTRUCT_SEQUENCE": "QQFVIAGVLVEDSNNHHLMLEASE [ZBED1]", "protein stability index": 3.57}
{"CONSTRUCT_SEQUENCE": "DDEGWLHSGDLGQLDGLGFLYVTG [ACSBG2]", "protein stability index": 2.54}
{"CONSTRUCT_SEQUENCE": "GYGRDRDYSDHPSGGSYRDSYESY [RBMX]", "protein stability index": 3.46}
{"CONSTRUCT_SEQUENCE": "SKLRNYRKDLAKLHREVRSTPLTA [VTI1B]", "protein stability index": 3.26}
{"CONSTRUCT_SEQUENCE": "DGNLCLHVPNPPSGISFPSVVDHP [HESX1]", "protein stability index": 3.78}
